studySystem: T1, human CD3 (human, UniProt P07766 23-207; P04234 22-171; P09693 23-182)
T1 construct: whole, on cells; also called hCD3; CD3 on Jurkat cells
T1 sequence (P07766 23-207, chain 1 of 3): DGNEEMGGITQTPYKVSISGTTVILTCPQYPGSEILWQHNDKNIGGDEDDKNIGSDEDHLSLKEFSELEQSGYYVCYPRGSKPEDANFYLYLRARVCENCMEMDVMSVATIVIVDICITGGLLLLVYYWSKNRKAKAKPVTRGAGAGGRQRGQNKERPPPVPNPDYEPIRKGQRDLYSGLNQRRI
T1 sequence (P04234 22-171, chain 2 of 3): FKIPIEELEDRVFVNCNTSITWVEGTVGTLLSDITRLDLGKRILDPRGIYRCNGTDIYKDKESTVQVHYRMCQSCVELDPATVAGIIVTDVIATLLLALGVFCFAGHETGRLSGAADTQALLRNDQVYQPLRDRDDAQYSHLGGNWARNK
T1 sequence (P09693 23-182, chain 3 of 3): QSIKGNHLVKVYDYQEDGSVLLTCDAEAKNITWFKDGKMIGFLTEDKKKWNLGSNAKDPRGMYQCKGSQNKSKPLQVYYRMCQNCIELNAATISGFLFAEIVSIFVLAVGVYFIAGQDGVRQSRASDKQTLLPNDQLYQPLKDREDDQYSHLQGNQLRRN
testDescription: FACS on Jurkat cells; note: test concentration or dose not given here
Kindly supply the reported FACS MFI values for the records listed here.
Just the number in MFI, nothing appended.

Ask: Quick one: FACS MFI of 147C6F3 (antibody, V domains shown, mouse monoclonal (hybridoma) antibody) VH: QVQLQQPGTELVKPGASVKLSCKASGYTFDSYWMHWVKQRPGQGLEWIGNLNPSNGEINYNEKFKHKATLTVDKSSSTAYMQLSSLTSEDSAVYYCSRDRSSQYYFDYWGQGTTLTVSS VL: DIVMSQSPSSLAVSAGEKVTLSCKSSQSLLNSRTRKNYLAWYQQKSGQSPKLLMYWASTRESGVPDRFTGSGSGTDFTLTITNVQAEDLAVYYCKQSYILRTFGGGTKLEIK ?
Result: 1860

Ask: Quick one: FACS MFI of 140D2B10 (antibody, V domains shown, mouse monoclonal (hybridoma) antibody) VH: QVQLQQPGTELVKPGASVKLSCKASGYTFTSYWMHWVKQRPGQGLEWIGNINPSNGESNYNEKFKSKATLTVDKSSSTAYMQLSSLTSEDYAVYYCARDRSSQYYFDYWGQGTTLTVSS VL: DIVMSQSPSSLAVSAGEKVTMSCKSSQSLLNSRTRKNYLAWYQQKPGQSPKLLIYWASTRESGVPDRFTGSGSGTDFTLTISSVQAEDLAVYYCKQSYTLRTFGGGTKLEIK ?
Result: 872

Ask: Quick one: FACS MFI of 126A11A4 (antibody, V domains shown, mouse monoclonal (hybridoma) antibody) VH: QVQLQQPGTELVKPGASVKLSCKASGYTFTSYWMHWVKQRPEQGLEWIGNINPSNGDTNYNEKFKSKATLTVDKASNTAYMQLSSLTSEDSAVYYCGRDRSSQYYFDYWGQGTTLTVSS VL: DIVMSQSPSSLAVSAGEKVTMSCKSSQSLLNSRTRKNYLAWYQQKPGQSPKLLIYWASTRESGVPDRFTGSGSGTDFTLTISSVQAEDLAVYFCKQSFILRTFGGGTKLEIK ?
Result: 1620

Ask: Quick one: FACS MFI of 147E11E2 (antibody, V domains shown, mouse monoclonal (hybridoma) antibody) VH: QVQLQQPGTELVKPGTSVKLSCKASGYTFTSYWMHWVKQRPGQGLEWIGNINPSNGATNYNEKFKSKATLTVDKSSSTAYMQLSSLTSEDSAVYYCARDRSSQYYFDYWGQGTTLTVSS VL: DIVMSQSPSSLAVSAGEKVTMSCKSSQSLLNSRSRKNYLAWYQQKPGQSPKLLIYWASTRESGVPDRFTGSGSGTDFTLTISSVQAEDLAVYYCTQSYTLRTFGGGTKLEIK ?
Result: 2450
